assay: soluble fraction after stress (log2 fold change); higher = more stays soluble; pooled small domains, quantitative proteomics; conditions: stress: pH 4
Entries and their measured soluble fraction (log2) follow.
METRIC: soluble fraction (log2)

1) HMENQGEDMRQQVKALVNADKTNITKLATATGYSRSTISMYLAGNYKGDVEAVERRLEEYMKTQG; 0.167
2) HMKKVIEFKDVSFAFEKKPILQDFNLLVQNKDRIGIVGDNGVGKSTLLNLIAERLQPQSGQVII; 0.0777
3) HMRQSKMREAILAAVSAQKLEISDLHVWRIGEQRYAAIIGLATTQAESVSALRDSLAQMDKLVHLTIDQ; -1.16
4) HMSKNYYEILGVTPDVELSQLKAVYRRLVRKYHPDINPDGELIFKDITEAYEVLSDEKQRKQYDMINGF; -0.362
5) HMRAVPTKLAPFVEVLKAMLEADGHRPKAQRRTAKALHLELISRGYAGGYTRLTDYIRDWRQQQG; -0.411
6) HMKQESSEDLLNEVIDKVIDSNPDEKNRLLDGELKLVSFFMGQVMKETKGKANPGVINGLIKKKFNI; -0.748
7) HMTLPGQDFIRASQLKELIAKYDKQYYEEGVSDISDAEYDRLYEEYLEFENKYPELKDMADAPTKRV; -0.661
8) HMHVSIAENIRRIRTQHDMTQEEFGKVAAVSAMAVSQWENGRAVPRMGAVQRIADYFNISKGEVID; 0.121

---

assay: soluble fraction after stress (log2 fold change); higher = more stays soluble; pooled small domains, quantitative proteomics; conditions: stress: pH 4
METRIC: soluble fraction (log2)

1. HMNPSRPASKEELLGLFEHLERALDAVTFFRPAEKKPVVVQTLRAMLTKASFTEQDIRTMRGVIAALEN; -0.986
2. HMSNIQLAANLQRLRKDHHFTQTQFSKKLNISRQAYSNYETGKRIPDLDIIIRIANIYHISLENLL; -0.203
3. HMIEDMQQYIKEIRQMVSGRLDMTRNLEDEEIRDTIAELVAEESRKQYMTLTEKREVIEGVFNSMR; -0.687
4. HMKDTFHNLSEEKRERIIRAALGEFAASGYEKATLDGVVQAAGISKGGLYEYISSKEDLFRYLLEYSYD; -1.43
5. HMKELTELIEKIKLRRLELGLSYQELSDLTGINKSTLQRYETGFIKKVPINQVQIIAKALNVTPGYLMG; -0.718
6. HMKEMTAKQIDMFSDKLSKLESFQSHYIADAGVSVTEYKQAIAAKLQDQFYVEAWGKYLADVGFT; -1.13
7. HMSGYAIVNNQPGRTLNLRNSPSQSNNIIGQIPSGTRLQLISRGETWSEVIFQTTRGFVMSSFLRFET; -0.17
8. HMNGLDSVLRNWARQTLASGGENLLGDLTDHVTRLIISEALIMTGGNRTRAAELLGLSRPTLLAKMDKLNL; -0.789
9. HMETQAGELQDAIRDAIAALPPRTREVFLMSRERNLRYGEIAEALGISVKAVEANMSRALRQLREKLSPFL; 0.108
10. HMLPELIVTTKKGVTVTVTNGVITYSATSNGKATFTVPNYGKWTVSATINGTVISKVVDVTEAKQIPVLLG; -0.318
11. HMPTAGYMTVTPDRVKEGQQFLATLRPPYVLKADGLAAGKGVLILPELEEAQRELEEMLGGFLGELSVNR; -0.303
12. HMGNGDTNERIATLMQILAKQESIINQYGLENPVVSPQMYVRTLKKVVELSGFKDASSYFADIPDGWKA; 0.0699
13. HMPTMVAQINEIVQAKLPGSGLKDYTIRLVESQRDGVVVWVNGTRYLGVDEVAEPQVQALLKEAVAEWERS; -0.942
14. HMKNTIPVPHIIGLSEQEARETLERAGLQLNVIKTEPNTKYESGQVTDTNPNEGIKVPKGTIVNVVLADS; -0.0342
15. HMSSLEQVYPNPVSSILKLNSFIKNYKILNATGHEVLKGSGNTINVGKLPSGSYFLITSENYSIKFIK; 0.119
16. HMKKTFSKSSVMEAIFRDIPNITIPNAHEVYTLIKNISVMNKRKSITSEDIEKAYDALGLTP; 0.145
17. HMGDVATVKLDNNGLLNMRKSDARGADIVARIPNGTVVQVLNRETEWTQVRYDGKEGYVMSSFLQFAE; 0.0427
18. HMIDIDNLEKAAILLLSMGTEAAAKVMQKLSRDEVQRLISKMASLSGVSSIEAKWTLQQFFNQYREQSG; -0.832
19. HMTASKSTVSTPEKVVYHIVFPKETKYSIAKKYGITIEELEKRNPEIIPSLSVGQKLVIKGTAPK; 0.173
20. HMATPIAGTKYTLNNTPVYGTEKGPSIGKRSGIYYTWDATVRNGRIRMTNSPARVGVPWQVSFWVEVNKL; -0.195
21. HMKSSTEIIYSDFLREVSNGQISEVTIQGDFVRGLFLSGSSFQTYAPKDSNLINILRDKKVRIKVHPP; -0.11
22. HMSQSLSGWAAKDLEVKSGADASYRTVGRLPKGSKVSGKIINGYLHIEFDGSMRYVPVSGISKTE; 0.156
23. HMVLVEEYDTKDSASTFKIGYYARYNTKYGTPSKVGSYADNQRSGIWTFYTDSLKTYFKYNYSTGLIL; -0.572
24. HMDDTRLLSEIGLSQRVLNALRARGIERVGQVLAMRPDQLLGIRNFGPRALQELRERLQENGYTEGPLFSG; -0.252
25. HMGDKVLIQTAQRLKKDLPFASIVSRFGGDEFLIFLPGISSTERVETIVKKTVFLFIAISTTLF; -0.0999
26. HMSQISKLWRPSEDVTEILTRSGMDSEFLEGLIPEFIIYWSERADVLVSYNSKFIEHARLKWAQHSAEIKT; -1.94
27. HMTTTSGLIKTIQTGRRKLGMDDETYRALLADVSGGKTSSKDLNAYQLKEVLRRMREAGFRS; 0.371
28. HMKVYIKDISDLSDKLKSLLIENDIDDSNKLFEVEDQVLLEIKGLGSKTIDKIKDIVTEYLKKNN; -0.38
29. HMSSIFTRIIAGEIPSYKVAEDENYYAFLDINPLTKGHTLVVPKMEVDYIFDLDDKTLAGMMLFAKKG; -0.455
30. HMISAVDLMAARRKIEAGITNLQPGQAFTLPNKVGWVKRMTGGSYFIQGNGGYTASVRTISEAIQAAAMLL; -0.0224
31. HMDHSSLIKKLRLERGLSQKKLAQGISQRSTLASFENNATKISYNILIQYLDRMNVTLEEYQFMLDGNNL; -1.33
32. HMSTMTEQEAFGLWERINDFIARTGNEPNRNSNDAHEVRMAEALNFIRIKVAEQRNSQSNSEAQNN; -1.39
33. HMTNVVSKNKAKEIAMNIINDTVLQGQTAATFKEIVKANGVYVVKIEIQGQEYTSYITKDGKIVFPYGVEV; -0.661
